Target: human glioblastoma A172 cells, naturally expressing hTDO2 (Homo sapiens)
Construct: human glioblastoma A172 cells, naturally expressing hTDO2; endogenous in cells
Sequence (P48775 whole entry): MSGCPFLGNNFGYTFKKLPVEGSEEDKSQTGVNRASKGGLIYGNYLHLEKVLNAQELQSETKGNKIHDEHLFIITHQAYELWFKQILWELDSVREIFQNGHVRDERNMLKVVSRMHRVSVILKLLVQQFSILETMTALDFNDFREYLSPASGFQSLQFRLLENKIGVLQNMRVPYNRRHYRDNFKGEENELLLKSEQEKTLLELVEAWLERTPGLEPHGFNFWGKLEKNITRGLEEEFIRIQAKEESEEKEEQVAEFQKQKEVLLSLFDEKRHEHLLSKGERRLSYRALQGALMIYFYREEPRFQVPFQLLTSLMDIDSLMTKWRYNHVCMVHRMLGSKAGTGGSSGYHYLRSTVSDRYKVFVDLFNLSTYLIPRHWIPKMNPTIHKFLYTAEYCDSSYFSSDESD
Assay: Cellular assay for TDO2 activity, A172 cells
Conditions: overnight incubation, kynurenine in supernatant
Method: The compounds of formula I inhibit the activity of human TDO2 in cells that constitutively express TDO2, such as A172 cells. A172 is a cell line derived from human brain glioblastoma cells. […] The plates were then centrifuged 5 min at 1000 rpm, and 100 μL of the supernatant were collected in a conical plate, 30 uL of TCA 30% were added and a further centrifugated at 3000×g for 10 minutes. […] Kynurenine concentrations were determined by measuring the absorbance at 480 nm. […]
# IC50 listing for each entry below
recordedMetric: IC50 (nM)

compound | tgt | unitsOfMeasure | valueReported
Fc1ccc2c(-c3ccc4nc(S)oc4c3)c[nH]c2c1 | human glioblastoma A172 cells, naturally expressing hTDO2 (Homo sapiens) | nM | 979
CN1C(=O)c2cc(-c3c[nH]c4cc(F)ccc34)ccc2S1(=O)=O | human glioblastoma A172 cells, naturally expressing hTDO2 (Homo sapiens) | nM | 3680
NC(=O)Cn1cnc2cc(-c3c[nH]c4cc(F)ccc34)ccc21 | human glioblastoma A172 cells, naturally expressing hTDO2 (Homo sapiens) | nM | 1330
Fc1ccc2c(-c3ccc4ccoc4c3)c[nH]c2c1 | human glioblastoma A172 cells, naturally expressing hTDO2 (Homo sapiens) | nM | 520
CN(C)CCS(=O)(=O)NCc1nc2ccc(-c3c[nH]c4cc(F)ccc34)cc2o1 | human glioblastoma A172 cells, naturally expressing hTDO2 (Homo sapiens) | nM | 345
c1ccc2c(-c3ccc4ocnc4c3)c[nH]c2c1 [Compound 118, 5-(1H-indol-3-yl)benzo[d]oxazole] | human glioblastoma A172 cells, naturally expressing hTDO2 (Homo sapiens) | nM | 1530
NC(=O)Cn1ncc2cc(-c3c[nH]c4cc(F)ccc34)ccc21 | human glioblastoma A172 cells, naturally expressing hTDO2 (Homo sapiens) | nM | 147
Fc1ccc2c(-c3ccc4oc(CN5CCNCC5)nc4c3)c[nH]c2c1 | human glioblastoma A172 cells, naturally expressing hTDO2 (Homo sapiens) | nM | 459
